# TARGET_ENTITY: FLuc-C-HiBiT (firefly luciferase) (Photinus pyralis, UniProt P08659, form not given/L550V)
# Sequence (P08659 2-550 L550V, form open): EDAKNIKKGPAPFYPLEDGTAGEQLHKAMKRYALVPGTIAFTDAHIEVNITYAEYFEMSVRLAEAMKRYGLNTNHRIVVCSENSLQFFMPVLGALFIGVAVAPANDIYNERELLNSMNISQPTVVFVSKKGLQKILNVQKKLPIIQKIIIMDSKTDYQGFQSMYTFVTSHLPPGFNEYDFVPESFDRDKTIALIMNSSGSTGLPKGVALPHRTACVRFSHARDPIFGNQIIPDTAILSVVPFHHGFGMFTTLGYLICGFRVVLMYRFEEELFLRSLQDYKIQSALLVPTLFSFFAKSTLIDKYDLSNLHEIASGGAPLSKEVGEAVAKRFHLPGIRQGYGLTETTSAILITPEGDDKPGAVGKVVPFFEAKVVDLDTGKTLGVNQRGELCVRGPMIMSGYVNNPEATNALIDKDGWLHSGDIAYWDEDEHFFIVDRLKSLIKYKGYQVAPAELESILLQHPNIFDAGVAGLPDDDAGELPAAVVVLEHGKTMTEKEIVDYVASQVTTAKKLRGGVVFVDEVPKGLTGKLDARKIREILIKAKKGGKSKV
# PROTOCOL_NOTES: Firefly luciferase (FLuc) enzymatic luminescence assay, FLuc-C-HiBiT
# Type: biochemical
# Set-up: key: % normalized; no enzyme control = 100% inhibition, DMSO = 0
# TEST_SETTINGS: 10 nM FLuc-C-HiBiT; normalized activity; Log [Compound], M -5.44
MEASURED_METRIC: FLuc Enzyme
Format: numeric value only, no unit, no commentary.

Please review the entries below; each comes with its answer.
Fc1ccc(-c2cn3cc(Cc4ccccc4)sc3n2)cc1    -86.7
O=C(O)c1cccc2c1CCN2C(=O)Nc1ccc(F)cc1    -96.7
CNC(=O)c1cccc2c1CCN2C(=O)Nc1ccc(C)cc1    -95.0
CC1CCCN(c2ncnc3c2cnn3-c2ccccc2)C1 (centres unmarked)    -86.0
O=C(O)CCSc1nnc(-c2ccc(Cl)cc2Cl)o1    -83.8

[ask] Give FLuc-C-HiBiT (firefly luciferase) (Photinus pyralis, UniProt P08659, form not given/L550V) FLuc Enzyme for COc1ccc(-c2nc(-c3ccc(C(=O)O)cc3)no2)cc1
[reply] -92.1

[ask] // same read-out, input: CC(CNC(=O)C1CCN(C(=O)c2ncn3c2COC(c2ccccc2)C3)CC1)c1ccccc1 (centres unmarked)
[reply] -56.6

[ask] Next record, please: Cc1ccc(-n2ncc3c(N4CCCCCC4)ncnc32)cc1
[reply] -91.6

---

# TARGET_ENTITY: FLuc-C-NLuc (firefly luciferase) (Photinus pyralis, UniProt P08659, form not given/L550V)
# Sequence (P08659 2-550 L550V, form open): as above
# PROTOCOL_NOTES: SDR assay, FLuc-C-NLuc
# TEST_SETTINGS: - ATP
MEASURED_METRIC: Efficacy (%) FLuc-C-NLuc SDR (-ATP)
Kindly format the answer as number then unit.

Past entries and their recorded results:
O=C(NCC1CCCO1)C1CCN(C(=O)c2ncn3c2COC(c2ccc(F)cc2)C3)CC1 (centres unmarked) [NCGC00449835-01]    0.00%
Cc1ccc(CNC(=O)C2CCN(C(=O)c3ncn4c3COC(c3ccc(F)cc3)C4)CC2)cc1 (centres unmarked) [NCGC00449814-01]    0.00%
CCCCNC(=O)C1CCN(C(=O)c2ncn3c2COC(c2ccc(OC)cc2)C3)CC1 (centres unmarked) [NCGC00449864-01]    0.00%

[ask] Entry under review: COc1ccc(C2Cn3cnc(C(=O)N4CCC(C(=O)NC5CCCC5)CC4)c3CO2)cc1 (centres unmarked) [NCGC00449859-01] . Reported Efficacy (%) FLuc-C-NLuc SDR (-ATP)?
[reply] 0.00%

[ask] Moving on to CCc1ccc(NC(=O)C2CCN(C(=O)c3ncn4c3COC(c3ccccc3)C4)CC2)cc1 (centres unmarked) [NCGC00449907-01]
[reply] 0.00%

[ask] Entry to check: O=C(NCc1cccc(Cl)c1)C1CCN(C(=O)c2ncn3c2COC(c2ccccc2)C3)CC1 (centres unmarked) [NCGC00449787-01]
[reply] 0.00%

[ask] Another compound to check: Cc1ccc(C2Cn3cnc(C(=O)N4CCC(C(=O)NCc5cc(F)ccc5F)CC4)c3CO2)cc1 (centres unmarked) [NCGC00449900-01]
[reply] 0.00%

[ask] Would you mind doing Cc1cc(C)cc(NC(=O)C2CCN(C(=O)c3ncn4c3COC(c3ccccc3)C4)CC2)c1 (centres unmarked) [NCGC00449905-01] as well?
[reply] 0.00%
